Biological target: LHRH rat pituitary receptor (Rattus norvegicus)
Construct: from tissue; host or cells: rat pituitary
Test: LHRH rat pituitary receptor binding (pKI)
Conditions: negative logarithm of the equilibrium dissociation constants, Table 1, read-out: receptor binding affinity (pKI) (converted)
Description: Representative compounds of the present invention were evaluated in in vitro tests for LHRH rat pituitary receptor binding (pKI) and for LH inhibition from rat pituitary cells for antagonist potency (pA2). The tests employed the methods detailed in F. Haviv, et al. J. Med. Chem., 32: 2340-2344 (1989). The receptor binding affinity (pKI) is the negative logarithm of the equilibrium dissociation constants.
The entries below come with measured Ki values attached.
The reply should contain only the number, in nM.

Challenge: Ki lookup needed for CC[C@H]1OC(=O)[C@H](C)[C@@H](O[C@H]2C[C@@](C)(OC)[C@@H](O)[C@H](C)O2)[C@H](C)[C@@H](O[C@@H]2O[C@H](C)C[C@H](N(C)C3CCCC3)[C@H]2O)[C@](C)(OC)C[C@@H](C)C(=O)[C@H](C)[C@H]2N(CCc3ccc(F)c(Cl)c3)C(=O)O[C@]12C , thanks.
Response given: 1.48

Challenge: # iterate: CC[C@H]1OC(=O)[C@H](C)[C@@H](O[C@H]2C[C@@](C)(OC)[C@@H](O)[C@H](C)O2)[C@H](C)[C@@H](O[C@@H]2O[C@H](C)C[C@H](N(C)CC)[C@H]2O)[C@](C)(OC)C[C@@H](C)C(=O)[C@H](C)[C@H]2N(CCc3ccc(Cl)cc3)C(=O)O[C@]12C
Response given: 6.17

Challenge: # iterate: CC[C@H]1OC(=O)[C@H](C)[C@@H](O[C@H]2C[C@@](C)(OC)[C@@H](O)[C@H](C)O2)[C@H](C)[C@@H](O[C@@H]2O[C@H](C)C[C@H](N(C)Cc3ccc(OCCO)cc3)[C@H]2O)[C@](C)(OC)C[C@@H](C)C(=O)[C@H](C)[C@H]2N(CCc3ccc(F)c(Cl)c3)C(=O)O[C@]12C
Response given: 3.16

====

molecular target: LHRH rat pituitary receptor (Rattus norvegicus); construct: from tissue; host or cells: rat pituitary; test: LHRH rat pituitary receptor binding (pKI); conditions: negative logarithm of the equilibrium dissociation constants, Table 1, read-out: receptor binding affinity (pKI) (converted)
Metric Name: Ki (nM)
The reply should contain only the number, in nM.

Consider the worked cases shown below.
{"columns": ["Smi", "Ki [nM]"],
 "data": [
  ["CC[C@H]1OC(=O)[C@H](C)[C@@H](O[C@H]2C[C@@](C)(OC)[C@@H](O)[C@H](C)O2)[C@H](C)[C@@H](O[C@@H]2O[C@H](C)C[C@H](N(C)Cc3ccc(C)c4ccccc34)[C@H]2O)[C@](C)(OC)C[C@@H](C)C(=O)[C@H](C)[C@H]2N(CCc3ccc(Cl)c(Cl)c3)C(=O)O[C@]12C", 0.214],
  ["CC[C@H]1OC(=O)[C@H](C)[C@@H](O[C@H]2C[C@@](C)(OC)[C@@H](O)[C@H](C)O2)[C@H](C)[C@@H](O[C@@H]2O[C@H](C)C[C@H](N(C)CCCc3ccccn3)[C@H]2O)[C@](C)(OC)C[C@@H](C)C(=O)[C@H](C)[C@H]2N(CCc3ccc(F)c(Cl)c3)C(=O)O[C@]12C", 2.29]
]}

Now examine the next entry.
Challenge: Ki lookup needed for CCCN(C)[C@H]1C[C@@H](C)O[C@@H](O[C@@H]2[C@@H](C)[C@H](O[C@H]3C[C@@](C)(OC)[C@@H](O)[C@H](C)O3)[C@@H](C)C(=O)O[C@H](CC)[C@@]3(C)OC(=O)N(CCc4ccc(F)c(Cl)c4)[C@@H]3[C@@H](C)C(=O)[C@H](C)C[C@@]2(C)OC)[C@@H]1O , thanks.
Response given: 1.45

====

Molecular target: LHRH rat pituitary receptor (Rattus norvegicus)
Construct: from tissue; host or cells: rat pituitary
Sequence (P30969 1-327): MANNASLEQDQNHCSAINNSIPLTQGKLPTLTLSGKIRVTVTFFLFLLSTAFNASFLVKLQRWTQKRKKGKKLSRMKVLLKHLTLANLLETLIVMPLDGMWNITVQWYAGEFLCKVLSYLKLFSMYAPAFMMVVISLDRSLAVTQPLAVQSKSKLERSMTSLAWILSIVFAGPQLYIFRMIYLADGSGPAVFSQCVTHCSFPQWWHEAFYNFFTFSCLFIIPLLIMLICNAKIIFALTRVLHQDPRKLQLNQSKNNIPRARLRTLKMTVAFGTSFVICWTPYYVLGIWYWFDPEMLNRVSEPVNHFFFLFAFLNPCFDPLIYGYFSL
Assay: LHRH rat pituitary receptor binding (pKI)
Details: negative logarithm of the equilibrium dissociation constants, Table 1, read-out: receptor binding affinity (pKI) (converted)
Where a name gives a salt, the structure may show the parent alone.
The entries below come with measured log10 Ki values attached.
Hello, just confirming the data are log10 of Ki with units of nM.

{"columns": ["Compound", "log10 Ki"],
 "data": [
  ["CC[C@H]1OC(=O)[C@H](C)[C@@H](O[C@H]2C[C@@](C)(OC)[C@@H](O)[C@H](C)O2)[C@H](C)[C@@H](O[C@@H]2O[C@H](C)C[C@H](N(C)Cc3ccco3)[C@H]2O)[C@](C)(OC)C[C@@H](C)C(=O)[C@H](C)[C@H]2N(CCc3ccc(Cl)c(Cl)c3)C(=O)O[C@]12C", 0.10],
  ["CC[C@H]1OC(=O)[C@H](C)[C@@H](O[C@H]2C[C@@](C)(OC)[C@@H](O)[C@H](C)O2)[C@H](C)[C@@H](O[C@@H]2O[C@H](C)C[C@H](N(C)C3CCC3)[C@H]2O)[C@](C)(OC)C[C@@H](C)C(=O)[C@H](C)[C@H]2N(CCc3ccc(Cl)c(Cl)c3)C(=O)O[C@]12C [Example 4, hydrochloride]", 0.51],
  ["CC[C@H]1OC(=O)[C@H](C)[C@@H](O[C@H]2C[C@@](C)(OC)[C@@H](O)[C@H](C)O2)[C@H](C)[C@@H](O[C@@H]2O[C@H](C)C[C@H](N(C)Cc3ccc4ccccc4c3Br)[C@H]2O)[C@](C)(OC)C[C@@H](C)C(=O)[C@H](C)[C@H]2N(CCc3ccc(Cl)c(Cl)c3)C(=O)O[C@]12C", -0.17],
  ["CCCN(C)[C@H]1C[C@@H](C)O[C@@H](O[C@@H]2[C@@H](C)[C@H](O[C@H]3C[C@@](C)(OC)[C@@H](O)[C@H](C)O3)[C@@H](C)C(=O)O[C@H](CC)[C@@]3(C)OC(=O)N(CCc4ccc(OC)c(Br)c4)[C@@H]3[C@@H](C)C(=O)[C@H](C)C[C@@]2(C)OC)[C@@H]1O", 0.55],
  ["CC[C@H]1OC(=O)[C@H](C)[C@@H](O[C@H]2C[C@@](C)(OC)[C@@H](O)[C@H](C)O2)[C@H](C)[C@@H](O[C@@H]2O[C@H](C)C[C@H](N(C)CC3CC3)[C@H]2O)[C@](C)(OC)C[C@@H](C)C(=O)[C@H](C)[C@H]2N(CC3(c4ccc(Cl)c(Cl)c4)CC3)C(=O)O[C@]12C", 0.57],
  ["CC[C@H]1OC(=O)[C@H](C)[C@@H](O[C@H]2C[C@@](C)(OC)[C@@H](O)[C@H](C)O2)[C@H](C)[C@@H](O[C@@H]2O[C@H](C)C[C@H](N(C)C3CCCCC3)[C@H]2O)[C@](C)(OC)C[C@@H](C)C(=O)[C@H](C)[C@H]2N(CC3(c4ccc(Cl)c(Cl)c4)CC3)C(=O)O[C@]12C", 0.90]
]}

Now examine the next entry.
Challenge: log10 Ki lookup needed for CC[C@H]1OC(=O)[C@H](C)[C@@H](O[C@H]2C[C@@](C)(OC)[C@@H](O)[C@H](C)O2)[C@H](C)[C@@H](O[C@@H]2O[C@H](C)C[C@H](N(C)CCC(C)SC)[C@H]2O)[C@](C)(OC)C[C@@H](C)C(=O)[C@H](C)[C@H]2N(CCc3ccc(F)c(Cl)c3)C(=O)O[C@]12C (stereo partly shown) , thanks.
Response given: -0.01

====

The entries below come with measured receptor binding affinity (pKI) values attached.
Target: LHRH rat pituitary receptor (Rattus norvegicus)
Construct: from tissue; host or cells: rat pituitary
Sequence (P30969 1-327): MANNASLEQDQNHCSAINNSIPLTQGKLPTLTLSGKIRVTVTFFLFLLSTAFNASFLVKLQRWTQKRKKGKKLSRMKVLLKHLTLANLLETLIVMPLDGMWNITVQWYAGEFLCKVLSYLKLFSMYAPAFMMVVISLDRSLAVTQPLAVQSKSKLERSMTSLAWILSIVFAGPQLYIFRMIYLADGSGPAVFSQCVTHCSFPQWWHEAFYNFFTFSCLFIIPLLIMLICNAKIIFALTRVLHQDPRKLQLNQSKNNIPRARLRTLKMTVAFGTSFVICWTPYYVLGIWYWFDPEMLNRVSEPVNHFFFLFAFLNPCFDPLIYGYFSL
Assay: LHRH rat pituitary receptor binding (pKI)
Details: negative logarithm of the equilibrium dissociation constants, Table 1
Form: value (number only, do not type unit).

{"columns": ["Molecule", "Metric Name", "Reported"],
 "data": [
  ["CC[C@H]1OC(=O)[C@H](C)[C@@H](O[C@H]2C[C@@](C)(OC)[C@@H](O)[C@H](C)O2)[C@H](C)[C@@H](O[C@@H]2O[C@H](C)C[C@H](N(C)CCCCc3ccncc3)[C@H]2O)[C@](C)(OC)C[C@@H](C)C(=O)[C@H](C)[C@H]2N(CCc3ccc(F)c(Cl)c3)C(=O)O[C@]12C [Example 83]", "receptor binding affinity (pKI)", 8.46],
  ["CC[C@H]1OC(=O)[C@H](C)[C@@H](O[C@H]2C[C@@](C)(OC)[C@@H](O)[C@H](C)O2)[C@H](C)[C@@H](O[C@@H]2O[C@H](C)C[C@H](N(C)C3CCC3)[C@H]2O)[C@](C)(OC)C[C@@H](C)C(=O)[C@H](C)[C@H]2N(CCc3ccc(Cl)cc3)C(=O)O[C@]12C [Example 20]", "receptor binding affinity (pKI)", 8.49]
]}

Challenge: receptor binding affinity (pKI) lookup needed for CC[C@H]1OC(=O)[C@H](C)[C@@H](O[C@H]2C[C@@](C)(OC)[C@@H](O)[C@H](C)O2)[C@H](C)[C@@H](O[C@@H]2O[C@H](C)C[C@H](N(C)CCC3CC3)[C@H]2O)[C@](C)(OC)C[C@@H](C)C(=O)[C@H](C)[C@H]2N(CCc3ccc(Cl)cc3)C(=O)O[C@]12C [Example 38] , thanks.
Response given: 8.17

Challenge: # iterate: CC[C@H]1OC(=O)[C@H](C)[C@@H](O[C@H]2C[C@@](C)(OC)[C@@H](O)[C@H](C)O2)[C@H](C)[C@@H](O[C@@H]2O[C@H](C)C[C@H](N(C)C3CC(C)C(C)C3)[C@H]2O)[C@](C)(OC)C[C@@H](C)C(=O)[C@H](C)[C@H]2N(CCc3ccc(Cl)c(Cl)c3)C(=O)O[C@]12C (some centres unmarked) [Example 9]
Response given: 8.36

Challenge: # iterate: CCCN(C)[C@H]1C[C@@H](C)O[C@@H](O[C@@H]2[C@@H](C)[C@H](O[C@H]3C[C@@](C)(OC)[C@@H](O)[C@H](C)O3)[C@@H](C)C(=O)O[C@H](CC)[C@@]3(C)OC(=O)N(CCc4ccc(Cl)c(Cl)c4)[C@@H]3[C@@H](C)C(=O)[C@H](C)C[C@@]2(C)OC)[C@@H]1O [Example 3]
Response given: 9.13
